Provide the recorded mass density for the entries that follow.
Conditions: 298.15 K; 101.33 kPa; Liquid; Vibrating tube method
API: value field is a number in kg/m3; no unit string.

Recorded mass density of CCCCCCCC , please.
698.5

Quick one: mass density for CCCCCCC ?
679.7

Which mass density reading was recorded for the molecule Cc1ccccc1 ?
862

Suppose we examine the molecule CCc1ccccc1 ; what mass density value has been reported?
862.7

For C1CCCCC1 , what is its reported mass density?
773.9

====

Conditions: 293.15 K; 101.33 kPa; Liquid; Vibrating tube method
Answer each item with its documented mass density.
The figure you give is taken to be in kg/m3; do not add the unit.

Query: mass density; subject: Cc1ccccc1
866.7

Look up mass density: CCCCCCC
684

I am curious: what mass density value has been reported for CCCCCCCC ?
702.5

What value of mass density has been recorded for this entry: C1CCCCC1
778.7

Bench note: what mass density did CCc1ccccc1 show?
867.1
